From: ChEMBL document CHEMBL1127536

test system: Cricetinae gen. sp.; assay: Percent reduction in plasma cholesterol was evaluated by hamster cholesterol absorption assay at the particular dose of 10 (mg/kg/day); type: functional, Cricetulus griseus
Recorded Reduction values for a group of compounds are listed next.
The reply should be a number in %, with the unit left off.

The compound identified as "CCCCCCCCCCC(C)(C)C(=O)Nc1c(OC)cc(OC)cc1OC" registered its Reduction at 0

The compound identified as COc1ccc([C@@H]2[C@@H](CCCc3ccccc3)C(=O)N2c2ccc(OC)cc2)cc1 (racemic) [SCH-48461] registered its Reduction at 21

The compound identified as COc1ccc([C@@H]2[C@@H](CCCc3ccccc3)C(=O)N2c2ccc(OC)cc2)cc1 [SCH-48461] registered its Reduction at 43

Pending compound:
The compound identified as "COc1ccc([C@@H]2[C@H](CCCc3ccccc3)C(=O)N2c2ccc(OC)cc2)cc1" registered its Reduction at 17

====

biological target: Sterol O-acyltransferase 1 (Rattus norvegicus) (UniProt O70536); test: Inhibition of Acyl coenzyme A:cholesterol acyltransferase in microsomal ACAT assay at 10 uM; conditions: 10 uM
Sequence (O70536 whole entry): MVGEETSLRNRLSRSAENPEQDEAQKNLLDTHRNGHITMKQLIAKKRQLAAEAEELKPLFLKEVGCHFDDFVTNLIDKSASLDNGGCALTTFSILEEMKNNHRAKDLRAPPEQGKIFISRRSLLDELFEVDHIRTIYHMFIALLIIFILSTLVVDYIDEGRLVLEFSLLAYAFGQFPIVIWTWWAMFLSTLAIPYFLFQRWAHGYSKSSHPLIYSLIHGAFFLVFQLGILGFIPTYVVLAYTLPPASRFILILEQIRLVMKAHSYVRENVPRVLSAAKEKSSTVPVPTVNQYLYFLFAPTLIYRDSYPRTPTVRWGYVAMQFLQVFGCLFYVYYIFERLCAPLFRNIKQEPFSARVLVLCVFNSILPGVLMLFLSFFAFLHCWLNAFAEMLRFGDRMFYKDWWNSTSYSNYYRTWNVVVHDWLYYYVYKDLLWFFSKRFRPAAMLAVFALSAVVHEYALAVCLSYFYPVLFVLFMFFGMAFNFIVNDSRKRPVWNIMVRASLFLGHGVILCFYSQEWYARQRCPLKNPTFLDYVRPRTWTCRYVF
Recorded inhibition values for a group of compounds are listed next.
The reply should be a number in %, with the unit left off.

The compound identified as "COc1ccc(N2C(=O)[C@@](CCCc3ccccc3)(c3ccccc3)[C@H]2c2ccccc2)cc1" registered its inhibition at 84

The compound identified as "CC[C@@]1(CCCc2ccccc2)C(=O)N(c2c(OC)cc(OC)cc2OC)[C@@H]1c1ccccc1" registered its inhibition at 82

Pending compound:
The compound identified as "COc1ccc(N2C(=O)[C@@H](CCCc3ccccc3)[C@H]2c2ccccc2)cc1" registered its inhibition at 28

====

biological target: Sterol O-acyltransferase 1 (Rattus norvegicus); test: Inhibition of Acyl coenzyme A:cholesterol acyltransferase in microsomal ACAT assay at 10 uM; details: 10 uM
Recorded inhibition values for a group of compounds are listed next.
The reply should be a number in %, with the unit left off.

Worked examples follow.
The compound identified as "COc1cc(OC)c(N2C(=O)[C@@H](CCCc3ccccc3)[C@H]2c2ccccc2)c(OC)c1" registered its inhibition at 61

The compound identified as "CC[C@]1(CCCc2ccccc2)C(=O)N(c2c(OC)cc(OC)cc2OC)[C@@H]1c1ccccc1" registered its inhibition at 42

The compound identified as "CC[C@]1(CCCc2ccccc2)C(=O)N(c2ccc(OC)cc2)[C@@H]1c1ccccc1" registered its inhibition at 33

The compound identified as "CC[C@]1(CCCc2ccccc2)CN(c2c(OC)cc(OC)cc2OC)C1=O" registered its inhibition at 38

Pending compound:
The compound identified as "CCCCCCCCCCC(C)(C)C(=O)Nc1c(OC)cc(OC)cc1OC" registered its inhibition at 72

====

tested on: Cricetinae gen. sp.; experiment: Percent reduction in plasma cholesterol was evaluated by hamster cholesterol absorption assay at the particular dose of 50 (mg/kg/day); assay type: functional, Cricetulus griseus
READOUT KIND: Reduction
Please answer in the form of a number followed by its unit of measurement.

Cricetinae gen. sp. data for "CC[C@]1(CCCc2ccccc2)C(=O)N(c2ccc(OC)cc2)[C@@H]1c1ccccc1" ; its Reduction: 12%

Cricetinae gen. sp. data for "COc1cc(OC)c(N2C(=O)[C@@H](CCCc3ccccc3)[C@H]2c2ccccc2)c(OC)c1" ; its Reduction: 0%

New cases:
Cricetinae gen. sp. data for "CC[C@]1(CCCc2ccccc2)C(=O)N(c2c(OC)cc(OC)cc2OC)[C@@H]1c1ccccc1" ; its Reduction: 0%

Cricetinae gen. sp. data for "COc1ccc(N2C(=O)[C@@](CCCc3ccccc3)(c3ccccc3)[C@H]2c2ccccc2)cc1" ; its Reduction: 11%

====

tested on: Cricetinae gen. sp.; test: Percent reduction of hepatic cholesteryl esters was evaluated by hamster cholesterol absorption assay at the particular dose of 10 (mg/kg/day); format: functional, Cricetulus griseus
READOUT KIND: Reduction (%)
The reply should be a number in %, with the unit left off.

Worked examples follow.
The compound identified as CCCCCCCCCCC(C)(C)C(=O)Nc1c(OC)cc(OC)cc1OC [CL-976] registered its Reduction at 33

The compound identified as COc1ccc([C@@H]2[C@@H](CCCc3ccccc3)C(=O)N2c2ccc(OC)cc2)cc1 [SCH-48461] registered its Reduction at 93

New cases:
The compound identified as "COc1ccc([C@@H]2[C@H](CCCc3ccccc3)C(=O)N2c2ccc(OC)cc2)cc1" registered its Reduction at 55

The compound identified as COc1ccc([C@@H]2[C@@H](CCCc3ccccc3)C(=O)N2c2ccc(OC)cc2)cc1 (racemic) [SCH-48461] registered its Reduction at 60

====

target: Sterol O-acyltransferase 1 (Rattus norvegicus); experiment: Concentration required for 50% inhibition of Acyl coenzyme A:cholesterol acyltransferase activity using microsomal ACAT assay
READOUT KIND: IC50 (µM)
The reply should be a number in µM, with the unit left off.

The compound identified as "COc1ccc(N2C(=O)[C@@](CCCc3ccccc3)(c3ccccc3)[C@H]2c2ccccc2)cc1" registered its IC50 at 6

====

test system: Cricetinae gen. sp.; assay: Percent reduction of hepatic cholesteryl esters was evaluated by hamster cholesterol absorption assay at the particular dose of 50 (mg/kg/day); assay type: functional, Cricetulus griseus
READOUT KIND: Reduction

The compound identified as "CC[C@]1(CCCc2ccccc2)CN(c2ccc(OC)cc2)C1=O" registered its Reduction at 0%

The compound identified as "CC[C@]1(CCCc2ccccc2)CN(c2c(OC)cc(OC)cc2OC)C1=O" registered its Reduction at -29%

The compound identified as "CC[C@]1(CCCc2ccccc2)C(=O)N(c2c(OC)cc(OC)cc2OC)[C@@H]1c1ccccc1" registered its Reduction at 0%

The compound identified as "COc1cc(OC)c(N2C(=O)[C@@H](CCCc3ccccc3)[C@H]2c2ccccc2)c(OC)c1" registered its Reduction at -20%

The compound identified as "COc1ccc(N2C(=O)[C@@](CCCc3ccccc3)(c3ccccc3)[C@H]2c2ccccc2)cc1" registered its Reduction at 16%

The compound identified as "COc1ccc([C@@H]2[C@@H](CCCc3ccccc3)C(=O)N2c2ccc(OC)cc2)cc1" registered its Reduction at 0%

The compound identified as "CC[C@]1(CCCc2ccccc2)C(=O)N(c2ccc(OC)cc2)[C@@H]1c1ccccc1" registered its Reduction at 29%

The compound identified as "COc1ccc(N2C(=O)[C@@H](CCCc3ccccc3)[C@H]2c2ccccc2)cc1" registered its Reduction at 0%

Pending compound:
The compound identified as "CC[C@@]1(CCCc2ccccc2)C(=O)N(c2c(OC)cc(OC)cc2OC)[C@@H]1c1ccccc1" registered its Reduction at 31%

====

Recorded Reduction values for a group of compounds are listed next.
system: Cricetinae gen. sp.; assay: Percent reduction in plasma cholesterol was evaluated by hamster cholesterol absorption assay at the particular dose of 50 (mg/kg/day); type: functional, Cricetulus griseus
Please answer in the form of a number followed by its unit of measurement.

Worked examples follow.
The compound identified as "COc1ccc([C@@H]2[C@@H](CCCc3ccccc3)C(=O)N2c2ccc(OC)cc2)cc1" registered its Reduction at 10%

The compound identified as "CC[C@@]1(CCCc2ccccc2)C(=O)N(c2c(OC)cc(OC)cc2OC)[C@@H]1c1ccccc1" registered its Reduction at 0%

Pending compound:
The compound identified as "CC[C@]1(CCCc2ccccc2)CN(c2ccc(OC)cc2)C1=O" registered its Reduction at 10%
